Documented Percent Effect across a set of molecules
- System: Trypanosoma cruzi
- EXPERIMENTAL_PROTOCOL: Trypanosoma cruzi phosphomannomutase and mannose-1-phosphate guanylyltransferase assay
- Assay type: functional
- Parameters: scale not given: direction of the effect not stated beside the values
- APPLIED_CONDITIONS: 10 µM
Give just the number in %; leave the unit off.

Ask | Requested field: Percent Effect. Item: CCOC(=O)CCCNC(=O)CN1CCN(c2ncccn2)CC1
Reply | -3.64

Ask | Requested field: Percent Effect. Item: O=C(Cn1ccnc1)N1C[C@@H]2CC[C@H](Oc3ccccc3Cl)[C@@H]2C1
Reply | 0.198

Ask | Requested field: Percent Effect. Item: Cc1nc(C)n(CC2CCCN(Cc3nnc(-c4ccco4)o3)C2)n1 (centres undefined)
Reply | 3.02

Ask | Requested field: Percent Effect. Item: Cc1nccn1C1CCCN(C(=O)c2cc3ccccc3[nH]2)C1 (centres undefined)
Reply | -2.74

Ask | Requested field: Percent Effect. Item: Clc1cc(CN2CCCC2Cn2cncn2)c2ncccc2c1 (centres undefined)
Reply | -2.88

Ask | Requested field: Percent Effect. Item: Cc1ccc(NC(=O)Nc2cnc(N3CCN(C)CC3)nc2)c(Cl)c1
Reply | 2.27

Further cases:
Ask | Requested field: Percent Effect. Item: O=C(Nc1nccs1)N(CCO)Cc1ccsc1
Reply | 5.08

Ask | Requested field: Percent Effect. Item: CCc1cccc(OCC(=O)N2CCCC(n3cncn3)C2)c1 (centres undefined)
Reply | -5.57

Ask | Requested field: Percent Effect. Item: Cc1noc([C@H]2C[C@@H]3CCN(C(=O)C4CCOCC4)C[C@H]3O2)n1
Reply | -3.81

Ask | Requested field: Percent Effect. Item: CN1CC(=O)N(c2cccnc2)CC12CCN(C(=O)C1CCCCC1)C2 (centres undefined)
Reply | -1.74

Ask | Requested field: Percent Effect. Item: C[S+]([O-])CCCNC(=O)c1cc(Br)c2c(c1)OCCO2 (centres undefined)
Reply | 5.55

====

- ASSAYED_SYSTEM: Tyrosyl-tRNA synthetase, putative (Trypanosoma cruzi (strain CL Brener))
- Sequence (whole entry): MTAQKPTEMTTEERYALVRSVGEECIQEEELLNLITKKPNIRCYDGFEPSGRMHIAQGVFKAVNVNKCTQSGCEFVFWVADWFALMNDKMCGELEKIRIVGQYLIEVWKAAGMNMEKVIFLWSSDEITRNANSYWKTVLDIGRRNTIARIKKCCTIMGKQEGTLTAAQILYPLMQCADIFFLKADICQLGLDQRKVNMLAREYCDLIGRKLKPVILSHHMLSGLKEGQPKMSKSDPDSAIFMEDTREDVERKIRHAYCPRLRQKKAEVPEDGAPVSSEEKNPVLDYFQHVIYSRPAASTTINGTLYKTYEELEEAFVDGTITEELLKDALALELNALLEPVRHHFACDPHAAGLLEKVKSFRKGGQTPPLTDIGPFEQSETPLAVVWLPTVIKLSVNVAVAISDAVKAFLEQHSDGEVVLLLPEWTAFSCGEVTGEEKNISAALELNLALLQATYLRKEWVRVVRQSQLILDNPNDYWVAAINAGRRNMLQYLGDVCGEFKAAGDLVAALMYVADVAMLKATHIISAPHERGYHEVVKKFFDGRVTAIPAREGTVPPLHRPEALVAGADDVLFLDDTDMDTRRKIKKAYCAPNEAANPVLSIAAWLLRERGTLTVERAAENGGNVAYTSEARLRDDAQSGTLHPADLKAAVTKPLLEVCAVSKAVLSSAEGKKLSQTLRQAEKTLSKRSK
- EXPERIMENTAL_PROTOCOL: Trypanosoma cruzi tyrosyl tRNA synthetase (TcYRS) SOP
- Format: functional
- Design: scale not given: direction of the effect not stated beside the values
- APPLIED_CONDITIONS: 30 µM
Threshold rule: Percent Effect greater than or equal to 10% is 1; below that, 0.

For orientation, consider the following solved cases.
Ask | Please indicate if the recorded Percent Effect for CCc1cnc(CN(C)C2CCN(CCc3ccccn3)C2)o1 (configuration not stated) meets or exceeds 10%.
Reply | 0

Ask | Please indicate if the recorded Percent Effect for CS(=O)(=O)NCCCNC(=O)c1cccc(-n2cccc2)c1 meets or exceeds 10%.
Reply | 1

Ask | Please indicate if the recorded Percent Effect for Cc1nocc1C(=O)N1CCc2c(CN(C)C(C)C)n[nH]c2C1 meets or exceeds 10%.
Reply | 1

Ask | Please indicate if the recorded Percent Effect for CCN(Cc1ccco1)C(=O)NCc1nnc2n1CCC2 meets or exceeds 10%.
Reply | 1

Ask | Please indicate if the recorded Percent Effect for Cc1nn(C)c(C)c1C1COCCN1C(=O)c1n[nH]c2ccccc12 (configuration not stated) meets or exceeds 10%.
Reply | 1

Ask | Please indicate if the recorded Percent Effect for CCn1nccc1CNC(=O)C1CC1 meets or exceeds 10%.
Reply | 1

Ask | Please indicate if the recorded Percent Effect for COCc1nc(N(C)C)ncc1C(=O)Nc1ccn(C)n1 meets or exceeds 10%.
Reply | 1

Ask | Please indicate if the recorded Percent Effect for CCN1C[C@@H]2[C@@H](OC)CCN(S(=O)(=O)c3ccccc3)[C@@H]2C1 meets or exceeds 10%.
Reply | 0

Ask | Please indicate if the recorded Percent Effect for CCOCCn1c(=O)[nH]c2cc(C(=O)N(C)CCc3cn[nH]c3)ccc21 meets or exceeds 10%.
Reply | 1

Ask | Please indicate if the recorded Percent Effect for CC1CCCN(C(=O)c2csc(S(N)(=O)=O)c2)CC1 (configuration not stated) meets or exceeds 10%.
Reply | 0

Further cases:
Ask | Please indicate if the recorded Percent Effect for Cc1cc(C)n(CC(=O)NC(Cc2ccsc2)c2ccccn2)c(=O)n1 (configuration not stated) meets or exceeds 10%.
Reply | 1

Ask | Please indicate if the recorded Percent Effect for CN(Cc1nc(N)c2ccccc2n1)C1CCCN(c2cccnn2)C1 (configuration not stated) meets or exceeds 10%.
Reply | 1

Ask | Please indicate if the recorded Percent Effect for CCOc1cc(F)ccc1NS(=O)(=O)c1cc(C)c(C(=O)O)s1 meets or exceeds 10%.
Reply | 0

Ask | Please indicate if the recorded Percent Effect for CC(C)c1ccsc1C(=O)N1CCCN(Cc2cscn2)CC1 meets or exceeds 10%.
Reply | 1

Ask | Please indicate if the recorded Percent Effect for Cc1ccoc1-c1nnc(CNCC2CCCN2c2cccnn2)o1 (configuration not stated) meets or exceeds 10%.
Reply | 1

Ask | Please indicate if the recorded Percent Effect for O=C(NCCNc1ncccn1)c1ccc(-c2ccco2)[nH]c1=O meets or exceeds 10%.
Reply | 1

Ask | Please indicate if the recorded Percent Effect for CN(Cc1ccc(F)cc1)C(=O)CN1CCOC(Cn2cncn2)C1 (configuration not stated) meets or exceeds 10%.
Reply | 0

Ask | Please indicate if the recorded Percent Effect for Cc1csc(N2CCN(Cc3ccccn3)CC2C)n1 (configuration not stated) meets or exceeds 10%.
Reply | 1

Ask | Please indicate if the recorded Percent Effect for CC(C)C(NC(=O)NCC1(CO)CC1)c1nnc2n1CCC2 (configuration not stated) meets or exceeds 10%.
Reply | 1

Ask | Please indicate if the recorded Percent Effect for CCN1CCN(S(=O)(=O)c2cc(C)c(Cl)cc2Cl)CC1 meets or exceeds 10%.
Reply | 0

Ask | Please indicate if the recorded Percent Effect for CC(Cc1ccco1)NC(=O)Nc1ccc(N2CCOCC2)nc1 (configuration not stated) meets or exceeds 10%.
Reply | 1

Ask | Please indicate if the recorded Percent Effect for CN1CCN(C[C@@H]2OC[C@H]3CN(Cc4ccsc4)CC[C@H]32)CC1 meets or exceeds 10%.
Reply | 0

Ask | Please indicate if the recorded Percent Effect for CCC(CO)NC(=O)c1ccc2ccc(N(C)CC3CC3)n2c1 (configuration not stated) meets or exceeds 10%.
Reply | 1
